Molecular target: fibrinogen receptor, glycoprotein IIb/IIIa (Homo sapiens, UniProt P05106+P08514)
Construct: The glycoprotein IIb/IIIa is obtained from Triton X-100 extracts of human blood platelets
Sequence (P08514 32-887 limits assumed): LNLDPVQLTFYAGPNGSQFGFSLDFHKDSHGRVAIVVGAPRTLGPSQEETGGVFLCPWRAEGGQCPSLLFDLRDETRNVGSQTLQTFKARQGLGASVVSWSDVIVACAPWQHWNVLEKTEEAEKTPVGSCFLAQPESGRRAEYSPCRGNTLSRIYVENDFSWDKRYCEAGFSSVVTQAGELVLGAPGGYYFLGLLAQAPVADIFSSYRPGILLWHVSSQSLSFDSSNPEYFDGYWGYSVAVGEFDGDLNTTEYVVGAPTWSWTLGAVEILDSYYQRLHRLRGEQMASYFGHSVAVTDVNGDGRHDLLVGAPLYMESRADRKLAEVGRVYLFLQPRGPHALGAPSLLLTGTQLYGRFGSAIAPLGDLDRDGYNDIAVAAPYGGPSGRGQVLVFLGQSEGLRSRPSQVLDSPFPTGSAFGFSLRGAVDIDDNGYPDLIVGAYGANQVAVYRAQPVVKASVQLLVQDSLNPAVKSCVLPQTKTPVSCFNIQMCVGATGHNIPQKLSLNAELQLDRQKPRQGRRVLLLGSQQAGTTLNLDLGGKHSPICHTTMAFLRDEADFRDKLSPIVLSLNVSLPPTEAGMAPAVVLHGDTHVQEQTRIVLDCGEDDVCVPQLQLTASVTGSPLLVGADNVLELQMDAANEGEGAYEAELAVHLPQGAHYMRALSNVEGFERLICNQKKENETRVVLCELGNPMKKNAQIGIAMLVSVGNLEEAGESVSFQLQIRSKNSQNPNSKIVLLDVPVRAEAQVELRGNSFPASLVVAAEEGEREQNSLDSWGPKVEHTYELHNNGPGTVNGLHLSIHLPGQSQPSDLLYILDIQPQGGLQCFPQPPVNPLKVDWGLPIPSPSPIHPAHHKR
Sequence (P08514 891-1039 partner limits assumed): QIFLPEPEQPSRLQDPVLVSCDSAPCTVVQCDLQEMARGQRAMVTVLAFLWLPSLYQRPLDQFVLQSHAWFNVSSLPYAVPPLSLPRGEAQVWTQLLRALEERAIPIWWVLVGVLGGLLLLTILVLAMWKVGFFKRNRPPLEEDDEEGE
Sequence (P05106 27-788): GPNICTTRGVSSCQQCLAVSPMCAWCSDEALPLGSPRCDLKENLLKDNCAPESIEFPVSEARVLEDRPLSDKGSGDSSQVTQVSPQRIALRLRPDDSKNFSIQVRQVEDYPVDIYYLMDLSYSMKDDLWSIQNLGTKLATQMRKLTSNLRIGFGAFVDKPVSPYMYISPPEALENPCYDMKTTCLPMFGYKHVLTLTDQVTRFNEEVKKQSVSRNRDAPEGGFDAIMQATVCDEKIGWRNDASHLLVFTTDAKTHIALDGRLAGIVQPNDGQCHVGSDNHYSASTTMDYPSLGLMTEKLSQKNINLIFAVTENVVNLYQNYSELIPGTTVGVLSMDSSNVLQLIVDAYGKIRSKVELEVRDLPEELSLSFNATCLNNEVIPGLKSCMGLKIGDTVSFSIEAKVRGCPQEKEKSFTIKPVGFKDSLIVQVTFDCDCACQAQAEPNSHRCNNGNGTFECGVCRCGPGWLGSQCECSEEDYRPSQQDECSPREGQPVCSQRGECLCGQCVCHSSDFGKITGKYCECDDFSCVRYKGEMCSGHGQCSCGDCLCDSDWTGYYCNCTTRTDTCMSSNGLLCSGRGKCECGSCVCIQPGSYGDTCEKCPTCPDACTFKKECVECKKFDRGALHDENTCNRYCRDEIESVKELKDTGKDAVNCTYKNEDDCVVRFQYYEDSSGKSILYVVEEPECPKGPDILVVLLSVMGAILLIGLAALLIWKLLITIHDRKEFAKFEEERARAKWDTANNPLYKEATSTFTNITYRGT
Experiment: inhibition of the binding of fibrinogen to the immobilized fibrinogen receptor, glycoprotein IIb/IIIa (ELISA)
Details: concentration required to inhibit the binding of fibrinogen to the immobilized receptor by 50%
Procedure: The glycoprotein IIb/IIIa is obtained from Triton X-100 extracts of human blood platelets and purified by lectin affinity chromatography (Analytical Biochemistry 151, 1985, 169-177) and chromatography on an Arg-Gly-Asp-Ser affinity column (Science 231, 1986, 1559-62). The thus-obtained receptor protein is bonded to microtiter plates. The specific binding of fibrinogen to the immobilized receptor is determined with the aid of an ELISA system ("enzyme-linked immunosorbent assay"). […]
# note: boundary value 30 µM maps to False; IC50 below it maps to True

{"Mol": "N=C(N)c1ccc(C(=O)NCC(=O)N2CCC(OCC(=O)O)CC2)cc1", "Measured on": "fibrinogen receptor, glycoprotein IIb/IIIa (Homo sapiens, UniProt P05106+P08514)", "Label": "True"}
{"Mol": "CC(C)[C@H](NC(=O)c1ccc(C(=N)N)cc1)C(=O)N1CCC(OCC(=O)O)CC1", "Measured on": "fibrinogen receptor, glycoprotein IIb/IIIa (Homo sapiens, UniProt P05106+P08514)", "Label": "True"}
{"Mol": "CC(C)C[C@H](NC(=O)c1ccc(C(=N)N)cc1)C(=O)N1CCC(OCC(=O)O)CC1", "Measured on": "fibrinogen receptor, glycoprotein IIb/IIIa (Homo sapiens, UniProt P05106+P08514)", "Label": "False"}
{"Mol": "C[C@H](NC(=O)c1ccc(C(=N)N)cn1)C(=O)N1CCC(OCC(=O)O)CC1", "Measured on": "fibrinogen receptor, glycoprotein IIb/IIIa (Homo sapiens, UniProt P05106+P08514)", "Label": "True"}
{"Mol": "C[C@@H](NC(=O)c1ccc(C(=N)N)cc1)C(=O)N1CCC(OCC(=O)O)CC1", "Measured on": "fibrinogen receptor, glycoprotein IIb/IIIa (Homo sapiens, UniProt P05106+P08514)", "Label": "False"}
{"Mol": "C[C@H](NC(=O)c1ccc(C(=N)N)cc1)C(=O)N1CCC(OCC(=O)O)CC1", "Measured on": "fibrinogen receptor, glycoprotein IIb/IIIa (Homo sapiens, UniProt P05106+P08514)", "Label": "True"}
